These measurements were taken from ChEMBL document CHEMBL1137870.

- Tested target: Melanin-concentrating hormone receptor 1 (Homo sapiens, UniProt Q99705)
- Sequence (Q99705 whole entry): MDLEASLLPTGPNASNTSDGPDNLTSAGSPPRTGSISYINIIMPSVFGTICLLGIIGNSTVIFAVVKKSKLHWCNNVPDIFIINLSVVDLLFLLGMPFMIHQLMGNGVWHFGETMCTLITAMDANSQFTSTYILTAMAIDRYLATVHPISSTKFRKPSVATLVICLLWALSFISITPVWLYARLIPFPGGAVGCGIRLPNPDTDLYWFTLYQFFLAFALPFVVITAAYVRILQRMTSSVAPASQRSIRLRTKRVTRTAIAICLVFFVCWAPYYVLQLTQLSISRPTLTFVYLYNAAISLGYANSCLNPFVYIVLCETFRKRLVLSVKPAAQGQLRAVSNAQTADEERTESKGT
- Protocol description: Concentration required to inhibit 50% of melanin-concentrating hormone induced [Ca2+] flux in IMR-32 cells measured by using a fluorometric imaging plate reader
- Format: functional, cell-based
pIC50: −log10 of the molar value.
Kind request: treat 7 as inclusive, so pIC50 at 7 or higher is TRUE, anything lower is FALSE.

Sample answers from the record:
Compound: Nc1ccc2cccc(OCCNCc3ccoc3)c2n1
Assigned label: FALSE

Compound: CC(CNCc1ccccc1)Oc1cccc2ccc(N)nc12 (stereo not drawn)
Assigned label: FALSE

Compound: CC(CNc1ccc2[nH]ncc2c1)Oc1cccc2ccc(N)nc12 (stereo not drawn)
Assigned label: FALSE

Compound: CC(CNC1CC1)Oc1cccc2ccc(N)nc12 (stereo not drawn)
Assigned label: FALSE

Compound: CC(CN1CCOCC1)Oc1cccc2ccc(N)nc12 (stereo not drawn)
Assigned label: FALSE

Compound: Nc1ccc2cccc(OCCCNc3ccc4c(c3)OCO4)c2n1
Assigned label: FALSE

Compound: Nc1ccc2cccc(OCCCNC(=O)c3cccc(Cl)c3)c2n1
Assigned label: TRUE

Compound: Nc1ccc2cccc(OCCCNC(=O)c3cccc(OC(F)(F)F)c3)c2n1
Assigned label: TRUE

[in] Could you verify whether the entry O=C(NCCCOc1cccc2ccc(NCc3ccc(-c4ccccc4Cl)o3)nc12)c1cccc(Cl)c1 shows pIC50 of no less than 7?
[out] TRUE

[in] And for CC(C)c1ccc(CNCCCOc2cccc3ccc(N)nc23)cc1 ?
[out] FALSE

[in] And for CC(CNC1CCCC1)Oc1cccc2ccc(N)nc12 (stereo not drawn) ?
[out] TRUE

[in] And for CN(C)CC1CCc2cc(NC(=O)c3ccc(-c4ccc(F)cc4)cc3)ccc2C1 (single isomer, unassigned; (-)) ?
[out] FALSE

[in] And for CC(CN1CCCCC1)Oc1cccc2ccc(N)nc12 (stereo not drawn) ?
[out] FALSE

---

- Tested target: Melanin-concentrating hormone receptor 1 (Homo sapiens)
- Protocol description: Concentration required to inhibit binding of [125I]-MCH radioligand to human Melanin-concentrating hormone receptor 1 in IMR-32 I3.4.2 cell membranes
IC50 strictly less than 50 nM = yes. Otherwise no.

Compound: CC(CNC1CCCCC1)Oc1cccc2ccc(N)nc12 (configuration not stated)
Assigned label: no
//
Compound: CC(CN1CCOCC1)Oc1cccc2ccc(N)nc12 (configuration not stated)
Assigned label: no
//
Compound: CC(CNCc1ccccc1)Oc1cccc2ccc(N)nc12 (configuration not stated)
Assigned label: no
//
Compound: Nc1ccc2cccc(OCCCNC(=O)Nc3cccc(Cl)c3)c2n1
Assigned label: yes
//
Compound: Nc1ccc2cccc(OCCCNCc3ccc(Cl)c(C(F)(F)F)c3)c2n1
Assigned label: yes

We next turn to a different compound, shown below.
[in] Please determine if N#Cc1cccc(C(=O)NCCCOc2cccc3ccc(NCc4ccc(-c5cccc(Cl)c5)o4)nc23)c1 is below 50 nM in terms of IC50.
[out] yes

---

IC50 by entry:
- Tested target: UniProtKB Q99705
- Protocol description: Concentration required to inhibit 50% of melanin-concentrating hormone induced [Ca2+] flux in IMR-32 cells measured by using a fluorometric imaging plate reader
- Type: functional, cell-based
Number only, in nM; omit the unit.

Molecule: Nc1ccc2cccc(OCCCNC(=O)Nc3ccc4c(c3)OCO4)c2n1
Observation type: IC50
Reported value: 110

[in] Provide the documented IC50 with UniProtKB Q99705 as the system for CC(CNCc1ccoc1)Oc1cccc2ccc(N)nc12 (stereo not given)
[out] 100

[in] And for CC(CNCC1CCCC1)Oc1cccc2ccc(N)nc12 (stereo not given) ?
[out] 100

[in] And for Nc1ccc2cccc(OCCCNC(=O)c3ccc4c(c3)OCO4)c2n1 ?
[out] 70

[in] And for CC(CNC1CCCCC1)Oc1cccc2ccc(N)nc12 (stereo not given) ?
[out] 2170

[in] And for COc1cccc(CNCC(C)Oc2cccc3ccc(N)nc23)c1 (stereo not given) ?
[out] 600

[in] And for COc1cccc(C(=O)NCCCOc2cccc3ccc(N)nc23)c1 ?
[out] 30

[in] And for CC(C)c1ccc(C(=O)NCCCOc2cccc3ccc(N)nc23)cc1 ?
[out] 140

[in] And for N#Cc1cccc(C(=O)NCCCOc2cccc3ccc(N)nc23)c1 ?
[out] 7

[in] And for CC(CNCc1ccc2c(c1)OCO2)Oc1cccc2ccc(N)nc12 (stereo not given) ?
[out] 130
